Reference source: ChEMBL document CHEMBL4049404

- test.details: Apparent plasma clearance in Sprague-Dawley rat at 1 mg/kg, iv after 8 hrs
- Type: ADME, organism-based
metric: clearance

Exam item: Name the recorded clearance of the item "C=CC(=O)N1CCC[C@@H](n2nc(-c3ccc(OCc4ccccn4)c(Cl)c3)c3c(N)ncnc32)C1" in your answer.
Marked response: 41.3 mL/min/kg

====

- assayed.system: Epidermal growth factor receptor (Homo sapiens, UniProt P00533, L858R)
- Sequence (P00533 25-1210 L858R limits assumed): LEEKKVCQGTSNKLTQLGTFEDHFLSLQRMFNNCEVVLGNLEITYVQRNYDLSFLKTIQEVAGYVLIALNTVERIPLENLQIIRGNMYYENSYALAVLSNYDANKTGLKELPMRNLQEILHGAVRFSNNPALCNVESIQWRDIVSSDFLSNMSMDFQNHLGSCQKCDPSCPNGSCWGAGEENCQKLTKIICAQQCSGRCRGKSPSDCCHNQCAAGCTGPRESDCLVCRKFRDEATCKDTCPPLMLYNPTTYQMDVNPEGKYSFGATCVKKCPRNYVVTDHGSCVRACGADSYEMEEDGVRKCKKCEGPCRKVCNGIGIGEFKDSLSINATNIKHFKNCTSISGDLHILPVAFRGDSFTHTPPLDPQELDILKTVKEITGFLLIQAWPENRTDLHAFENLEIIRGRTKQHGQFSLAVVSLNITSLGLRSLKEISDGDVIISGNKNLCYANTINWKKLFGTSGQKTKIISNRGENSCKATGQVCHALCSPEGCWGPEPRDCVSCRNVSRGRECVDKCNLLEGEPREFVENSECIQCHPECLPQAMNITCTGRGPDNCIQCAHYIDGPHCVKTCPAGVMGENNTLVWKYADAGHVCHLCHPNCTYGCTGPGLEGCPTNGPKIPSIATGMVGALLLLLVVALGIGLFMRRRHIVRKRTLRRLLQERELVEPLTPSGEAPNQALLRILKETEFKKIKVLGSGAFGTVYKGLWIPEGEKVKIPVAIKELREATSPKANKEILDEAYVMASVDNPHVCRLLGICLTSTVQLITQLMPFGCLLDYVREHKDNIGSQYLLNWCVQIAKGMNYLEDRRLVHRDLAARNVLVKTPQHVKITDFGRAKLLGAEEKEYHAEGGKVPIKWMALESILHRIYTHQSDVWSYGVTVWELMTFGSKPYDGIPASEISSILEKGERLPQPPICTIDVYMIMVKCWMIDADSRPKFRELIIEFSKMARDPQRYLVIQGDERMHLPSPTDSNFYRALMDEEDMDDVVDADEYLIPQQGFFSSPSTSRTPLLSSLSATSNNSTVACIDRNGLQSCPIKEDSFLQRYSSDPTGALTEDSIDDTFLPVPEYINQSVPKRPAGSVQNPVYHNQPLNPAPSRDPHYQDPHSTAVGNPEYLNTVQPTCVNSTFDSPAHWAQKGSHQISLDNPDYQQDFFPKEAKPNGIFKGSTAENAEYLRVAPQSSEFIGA
- test.details: Inhibition of EGFR L858R mutant expressed in human H3255 cells assessed as reduction in ERK phosphorylation at Thr202/Tyr204 measured after 4 hrs by Western blot analysis
metric: EC50

Exam item: Quote Epidermal growth factor receptor (Homo sapiens, UniProt P00533, L858R) EC50 for entry "C=CC(=O)N1CCC[C@@H](n2nc(-c3ccc(OCc4ccccn4)c(Cl)c3)c3c(N)ncnc32)C1" .
Marked response: < 10 nM
